Value source: patent US7582655B2

# System: human gingival fibroblasts (HGF)
# procedure.summary: Cytotoxicity CC50, MTT assay, normal HGF cells
# experimental.parameters: read-out: CC50(μM) HGF; normal cells, 24 h, MTT
readout: CC50

State its CC50 on human gingival fibroblasts (HGF): N[C@@H](Cc1ccc(N(CCCl)CCCl)cc1)C(=O)O [Melphalan, reference compound] > 200 µM

---

# procedure.summary: in vitro
# experimental.parameters: human
readout: CC50 at 24 h

Returns the measured CC50 at 24 h for the input molecule. Input: Cl.O=C1C(=Cc2ccc(Cl)cc2)CN(C(=O)c2ccc(OCCN3CCCCC3)cc2)CC1=Cc1ccc(Cl)cc1 [Compound 5b, hydrochloride] > 400 µM

Returns the measured CC50 at 24 h for the input molecule. Input: CCN(CC)CCOc1ccc(C(=O)N2CC(=Cc3ccc(Cl)cc3)C(=O)C(=Cc3ccc(Cl)cc3)C2)cc1.Cl [Compound 4b, hydrochloride] > 400 µM

---

Exercise: state measured IC50 for each of the compounds provided.
# Tested on: HCT 15
# procedure.summary: Human tumour cell line panel, colon cancer HCT 15
# Assay type: cell-based
# experimental.parameters: 48 h; read-out: Colon cancer cells, IC50(μM) HCT 15
Number in µM, nothing else.

State its IC50 on HCT 15: CC[N+](C)(CC)CCOc1ccc(C(=O)N2CC(=Cc3ccc(C)cc3)C(=O)C(=Cc3ccc(C)cc3)C2)cc1.[I-] 9.33

State its IC50 on HCT 15: Cc1ccc(C=C2CN(C(=O)c3ccc(OCCN4CCCCC4)cc3)CC(=Cc3ccc(C)cc3)C2=O)cc1.Cc1ccc(C=C2CN(C(=O)c3ccc(OCCN4CCCCC4)cc3)CC(=Cc3ccc(C)cc3)C2=O)cc1.Cl.Cl.O [Compound 5d, hydrochloride hemihydrate] 1.07

State its IC50 on HCT 15: O=C1C(=Cc2ccccc2)CNCC1=Cc1ccccc1 0.631

State its IC50 on HCT 15: Cl.O=C1C(=Cc2ccc(Cl)cc2)CN(C(=O)c2ccc(OCCN3CCOCC3)cc2)CC1=Cc1ccc(Cl)cc1 [Compound 6b, hydrochloride] 2.19

---

# System: SW 620
# procedure.summary: Human tumour cell line panel, colon cancer SW 620
# Type: cell-based
# experimental.parameters: 48 h; read-out: Colon cancer cells, IC50(μM) SW 620
readout: IC50 (µM)
Number in µM, nothing else.

Returns the measured IC50 for the input compound. Input: Cc1ccc(C=C2CN(C(=O)c3ccc(OCCN4CCCCC4)cc3)CC(=Cc3ccc(C)cc3)C2=O)cc1.Cc1ccc(C=C2CN(C(=O)c3ccc(OCCN4CCCCC4)cc3)CC(=Cc3ccc(C)cc3)C2=O)cc1.Cl.Cl.O [Compound 5d, hydrochloride hemihydrate] 0.339

Returns the measured IC50 for the input compound. Input: CC[N+](C)(CC)CCOc1ccc(C(=O)N2CC(=Cc3ccc(C)cc3)C(=O)C(=Cc3ccc(C)cc3)C2)cc1.[I-] 10.5

Returns the measured IC50 for the input compound. Input: Cl.O=C1C(=Cc2ccc(Cl)cc2)CN(C(=O)c2ccc(OCCN3CCOCC3)cc2)CC1=Cc1ccc(Cl)cc1 [Compound 6b, hydrochloride] 1.45

Returns the measured IC50 for the input compound. Input: O=C1C(=Cc2ccccc2)CNCC1=Cc1ccccc1 0.575

Returns the measured IC50 for the input compound. Input: CC[N+](C)(CC)CCOc1ccc(C(=O)N2CC(=Cc3ccccc3)C(=O)C(=Cc3ccccc3)C2)cc1.[I-] 30.2

---

Exercise: state measured IC50 for each of the molecules provided.
# Test system: HCT 116
# procedure.summary: Human tumour cell line panel, colon cancer HCT 116
# Assay type: cell-based
# experimental.parameters: 48 h; read-out: Colon cancer cells, IC50(μM) HCT 116
Number in µM, nothing else.

Returns the measured IC50 for the input molecule. Input: Cl.O=C1C(=Cc2ccc(Cl)cc2)CN(C(=O)c2ccc(OCCN3CCOCC3)cc2)CC1=Cc1ccc(Cl)cc1 [Compound 6b, hydrochloride] 7.25

Returns the measured IC50 for the input molecule. Input: Cc1ccc(C=C2CN(C(=O)c3ccc(OCCN4CCCCC4)cc3)CC(=Cc3ccc(C)cc3)C2=O)cc1.Cc1ccc(C=C2CN(C(=O)c3ccc(OCCN4CCCCC4)cc3)CC(=Cc3ccc(C)cc3)C2=O)cc1.Cl.Cl.O [Compound 5d, hydrochloride hemihydrate] 1.58

Returns the measured IC50 for the input molecule. Input: O=C1C(=Cc2ccccc2)CNCC1=Cc1ccccc1 0.182

Returns the measured IC50 for the input molecule. Input: CC[N+](C)(CC)CCOc1ccc(C(=O)N2CC(=Cc3ccc(C)cc3)C(=O)C(=Cc3ccc(C)cc3)C2)cc1.[I-] 14.1

---

# System: HSC-2, HSC-4 and HL-60 malignant cells
# procedure.summary: Average CC50 for malignant cells
readout: CC50

Returns the measured CC50 for the input compound. Input: CC[N+](C)(CC)CCOc1ccc(C(=O)N2CC(=Cc3ccc(Cl)cc3)C(=O)C(=Cc3ccc(Cl)cc3)C2)cc1.[I-] ≥ 228 µM

---

# Test system: HL 60
# procedure.summary: Human tumour cell line panel, leukemic HL 60
# Format: cell-based
# experimental.parameters: 48 h; read-out: Leukemic cells, IC50(μM) HL 60
readout: IC50 (µM)
Number in µM, nothing else.

Returns the measured IC50 for the input molecule. Input: Cc1ccc(C=C2CN(C(=O)c3ccc(OCCN4CCCCC4)cc3)CC(=Cc3ccc(C)cc3)C2=O)cc1.Cc1ccc(C=C2CN(C(=O)c3ccc(OCCN4CCCCC4)cc3)CC(=Cc3ccc(C)cc3)C2=O)cc1.Cl.Cl.O [Compound 5d, hydrochloride hemihydrate] 0.933

Returns the measured IC50 for the input molecule. Input: Cl.O=C1C(=Cc2ccc(Cl)cc2)CN(C(=O)c2ccc(OCCN3CCOCC3)cc2)CC1=Cc1ccc(Cl)cc1 [Compound 6b, hydrochloride] 5.5

Returns the measured IC50 for the input molecule. Input: CC[N+](C)(CC)CCOc1ccc(C(=O)N2CC(=Cc3ccc(C)cc3)C(=O)C(=Cc3ccc(C)cc3)C2)cc1.[I-] 11.8

Returns the measured IC50 for the input molecule. Input: O=C1C(=Cc2ccccc2)CNCC1=Cc1ccccc1 0.363

---

# Tested on: human squamous cell carcinomas HSC-4
# procedure.summary: Cytotoxicity CC50, MTT assay, HSC-4
readout: CC50 (µM)
Number in µM, nothing else.

Returns the measured CC50 for the input compound. Input: O=C1C(=Cc2ccccc2)CNCC1=Cc1ccccc1 4.4

Returns the measured CC50 for the input compound. Input: CC[N+](C)(CC)CCOc1ccc(C(=O)N2CC(=Cc3ccc([N+](=O)[O-])cc3)C(=O)C(=Cc3ccc([N+](=O)[O-])cc3)C2)cc1.[I-] 61

Returns the measured CC50 for the input compound. Input: O=C1C(=Cc2ccc(Cl)cc2)CNCC1=Cc1ccc(Cl)cc1 20

Returns the measured CC50 for the input compound. Input: Cl.Cl.O.O.O.O=C1C(=Cc2ccc([N+](=O)[O-])cc2)CN(C(=O)c2ccc(OCCN3CCCCC3)cc2)CC1=Cc1ccc([N+](=O)[O-])cc1.O=C1C(=Cc2ccc([N+](=O)[O-])cc2)CN(C(=O)c2ccc(OCCN3CCCCC3)cc2)CC1=Cc1ccc([N+](=O)[O-])cc1 [Compound 5c, hydrate] 0.9

Returns the measured CC50 for the input compound. Input: Cl.O=C1C(=Cc2ccc(Cl)cc2)CN(C(=O)c2ccc(OCCN3CCOCC3)cc2)CC1=Cc1ccc(Cl)cc1 [Compound 6b, hydrochloride] 18

Returns the measured CC50 for the input compound. Input: CC[N+](C)(CC)CCOc1ccc(C(=O)N2CC(=Cc3ccc(Cl)cc3)C(=O)C(=Cc3ccc(Cl)cc3)C2)cc1.[I-] 220

Returns the measured CC50 for the input compound. Input: Cc1ccc(C=C2CN(C(=O)c3ccc(OCCN4CCCCC4)cc3)CC(=Cc3ccc(C)cc3)C2=O)cc1.Cc1ccc(C=C2CN(C(=O)c3ccc(OCCN4CCCCC4)cc3)CC(=Cc3ccc(C)cc3)C2=O)cc1.Cl.Cl.O [Compound 5d, hydrochloride hemihydrate] 4.1

Returns the measured CC50 for the input compound. Input: CC[N+](C)(CC)CCOc1ccc(C(=O)N2CC(=Cc3ccccc3)C(=O)C(=Cc3ccccc3)C2)cc1.[I-] 82

Returns the measured CC50 for the input compound. Input: CC[N+](C)(CC)CCOc1ccc(C(=O)N2CC(=Cc3ccc(C)cc3)C(=O)C(=Cc3ccc(C)cc3)C2)cc1.[I-] 17

---

# Tested on: human squamous cell carcinomas HSC-2
# procedure.summary: Cytotoxicity CC50, MTT assay, HSC-2
Exercise: state measured CC50 for each of the compounds provided.
Express your answer as a number followed by its unit.

Returns the measured CC50 for the input compound. Input: CC[N+](C)(CC)CCOc1ccc(C(=O)N2CC(=Cc3ccc([N+](=O)[O-])cc3)C(=O)C(=Cc3ccc([N+](=O)[O-])cc3)C2)cc1.[I-] 67 µM

Returns the measured CC50 for the input compound. Input: O=C1C(=Cc2ccc(Cl)cc2)CNCC1=Cc1ccc(Cl)cc1 18 µM

Returns the measured CC50 for the input compound. Input: O=C1C(=Cc2ccccc2)CNCC1=Cc1ccccc1 2.2 µM

Returns the measured CC50 for the input compound. Input: CC[N+](C)(CC)CCOc1ccc(C(=O)N2CC(=Cc3ccccc3)C(=O)C(=Cc3ccccc3)C2)cc1.[I-] 130 µM

Returns the measured CC50 for the input compound. Input: Cl.Cl.O.O.O.O=C1C(=Cc2ccc([N+](=O)[O-])cc2)CN(C(=O)c2ccc(OCCN3CCCCC3)cc2)CC1=Cc1ccc([N+](=O)[O-])cc1.O=C1C(=Cc2ccc([N+](=O)[O-])cc2)CN(C(=O)c2ccc(OCCN3CCCCC3)cc2)CC1=Cc1ccc([N+](=O)[O-])cc1 [Compound 5c, hydrate] 0.86 µM

Returns the measured CC50 for the input compound. Input: Cl.O=C1C(=Cc2ccc(Cl)cc2)CN(C(=O)c2ccc(OCCN3CCOCC3)cc2)CC1=Cc1ccc(Cl)cc1 [Compound 6b, hydrochloride] 71 µM
